- TARGET_ENTITY: NMDA-B (NR1/2B) receptors (Homo sapiens, UniProt Q05586+Q13224)
- Sequence (Q13224 27-1484, other chains not shown): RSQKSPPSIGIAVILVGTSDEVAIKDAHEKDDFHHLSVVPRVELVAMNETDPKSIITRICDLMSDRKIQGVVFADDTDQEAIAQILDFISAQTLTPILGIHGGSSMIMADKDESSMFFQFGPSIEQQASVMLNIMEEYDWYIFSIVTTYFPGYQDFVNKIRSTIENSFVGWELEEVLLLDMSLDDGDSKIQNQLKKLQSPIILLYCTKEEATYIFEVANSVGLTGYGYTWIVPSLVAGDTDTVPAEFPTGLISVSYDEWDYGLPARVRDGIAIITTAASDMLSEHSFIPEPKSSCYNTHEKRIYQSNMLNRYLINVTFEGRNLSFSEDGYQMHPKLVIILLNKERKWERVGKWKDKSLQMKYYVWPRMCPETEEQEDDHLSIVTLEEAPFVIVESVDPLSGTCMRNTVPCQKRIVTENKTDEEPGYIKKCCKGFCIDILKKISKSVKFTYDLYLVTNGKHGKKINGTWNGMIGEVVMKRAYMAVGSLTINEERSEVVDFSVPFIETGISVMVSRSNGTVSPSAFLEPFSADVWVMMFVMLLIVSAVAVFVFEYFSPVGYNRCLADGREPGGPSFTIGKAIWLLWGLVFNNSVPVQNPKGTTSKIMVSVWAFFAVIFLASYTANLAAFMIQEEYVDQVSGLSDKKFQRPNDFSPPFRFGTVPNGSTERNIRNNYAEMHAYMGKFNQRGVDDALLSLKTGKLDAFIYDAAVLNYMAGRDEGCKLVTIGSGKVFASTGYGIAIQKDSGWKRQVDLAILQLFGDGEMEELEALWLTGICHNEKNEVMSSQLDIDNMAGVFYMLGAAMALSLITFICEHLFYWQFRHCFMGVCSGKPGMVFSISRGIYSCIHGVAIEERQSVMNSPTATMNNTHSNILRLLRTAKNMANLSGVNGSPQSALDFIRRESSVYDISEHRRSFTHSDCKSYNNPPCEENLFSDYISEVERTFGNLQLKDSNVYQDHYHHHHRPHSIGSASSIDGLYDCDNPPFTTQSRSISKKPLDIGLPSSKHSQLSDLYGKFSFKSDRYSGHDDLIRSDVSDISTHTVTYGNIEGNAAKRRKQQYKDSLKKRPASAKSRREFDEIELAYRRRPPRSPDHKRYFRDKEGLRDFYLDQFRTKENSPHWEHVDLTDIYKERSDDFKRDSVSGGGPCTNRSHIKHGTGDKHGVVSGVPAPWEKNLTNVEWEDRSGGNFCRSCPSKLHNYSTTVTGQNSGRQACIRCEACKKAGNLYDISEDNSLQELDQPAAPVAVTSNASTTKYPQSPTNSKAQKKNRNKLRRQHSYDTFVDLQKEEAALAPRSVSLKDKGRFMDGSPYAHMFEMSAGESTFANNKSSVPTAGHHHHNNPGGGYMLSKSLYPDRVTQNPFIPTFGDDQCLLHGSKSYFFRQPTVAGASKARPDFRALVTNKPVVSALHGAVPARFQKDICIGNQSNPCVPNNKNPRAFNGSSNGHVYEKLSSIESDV
- ASSAY_DETAILS: Antagonist activity on NMDA receptors (current blockade and recovery)
MEASURED_ENDPOINT: inhibition at 50 µM (%)

COMPOUND	RECORDED_VALUE
CNC1(c2ccccc2Cl)CCCCC1=O (stereo not drawn) [Ketamine, reference compound]	80.5
CNC1(c2ccccc2Cl)CCCC/C1=N\NC(N)=O (stereo not drawn)	50.8
CNC1(c2ccccc2Cl)CCCC/C1=N\OC (stereo not drawn)	75.6
CNC1(c2ccccc2Cl)CCCC/C1=N\OCc1ccccc1 (stereo not drawn)	41
CNC1(c2ccccc2Cl)CCCC/C1=N\O (stereo not drawn)	83
c1ccc(C2(N3CCCCC3)CCCCC2)cc1 [PCP, Phencyclidine, reference compound]	96.8

----------
- TARGET_ENTITY: NMDA-B (NR1/2B) receptors (Homo sapiens, UniProt Q05586+Q13224)
- ASSAY_DETAILS: Antagonist activity on NMDA receptors (current blockade and recovery)
Measured IC50 by item

COMPOUND	UNITS_OF_MEASURE	IC50
CNC1(c2ccccc2Cl)CCCC/C1=N\O (centres unmarked)	nM	1070
CNC1(c2ccccc2Cl)CCCCC1=O (centres unmarked) [Ketamine, reference compound]	nM	820

----------
- TARGET_ENTITY: NMDA-D (NR1/2D) receptors (Homo sapiens, UniProt O15399+Q05586)
- Sequence (O15399 28-1336, other chains not shown): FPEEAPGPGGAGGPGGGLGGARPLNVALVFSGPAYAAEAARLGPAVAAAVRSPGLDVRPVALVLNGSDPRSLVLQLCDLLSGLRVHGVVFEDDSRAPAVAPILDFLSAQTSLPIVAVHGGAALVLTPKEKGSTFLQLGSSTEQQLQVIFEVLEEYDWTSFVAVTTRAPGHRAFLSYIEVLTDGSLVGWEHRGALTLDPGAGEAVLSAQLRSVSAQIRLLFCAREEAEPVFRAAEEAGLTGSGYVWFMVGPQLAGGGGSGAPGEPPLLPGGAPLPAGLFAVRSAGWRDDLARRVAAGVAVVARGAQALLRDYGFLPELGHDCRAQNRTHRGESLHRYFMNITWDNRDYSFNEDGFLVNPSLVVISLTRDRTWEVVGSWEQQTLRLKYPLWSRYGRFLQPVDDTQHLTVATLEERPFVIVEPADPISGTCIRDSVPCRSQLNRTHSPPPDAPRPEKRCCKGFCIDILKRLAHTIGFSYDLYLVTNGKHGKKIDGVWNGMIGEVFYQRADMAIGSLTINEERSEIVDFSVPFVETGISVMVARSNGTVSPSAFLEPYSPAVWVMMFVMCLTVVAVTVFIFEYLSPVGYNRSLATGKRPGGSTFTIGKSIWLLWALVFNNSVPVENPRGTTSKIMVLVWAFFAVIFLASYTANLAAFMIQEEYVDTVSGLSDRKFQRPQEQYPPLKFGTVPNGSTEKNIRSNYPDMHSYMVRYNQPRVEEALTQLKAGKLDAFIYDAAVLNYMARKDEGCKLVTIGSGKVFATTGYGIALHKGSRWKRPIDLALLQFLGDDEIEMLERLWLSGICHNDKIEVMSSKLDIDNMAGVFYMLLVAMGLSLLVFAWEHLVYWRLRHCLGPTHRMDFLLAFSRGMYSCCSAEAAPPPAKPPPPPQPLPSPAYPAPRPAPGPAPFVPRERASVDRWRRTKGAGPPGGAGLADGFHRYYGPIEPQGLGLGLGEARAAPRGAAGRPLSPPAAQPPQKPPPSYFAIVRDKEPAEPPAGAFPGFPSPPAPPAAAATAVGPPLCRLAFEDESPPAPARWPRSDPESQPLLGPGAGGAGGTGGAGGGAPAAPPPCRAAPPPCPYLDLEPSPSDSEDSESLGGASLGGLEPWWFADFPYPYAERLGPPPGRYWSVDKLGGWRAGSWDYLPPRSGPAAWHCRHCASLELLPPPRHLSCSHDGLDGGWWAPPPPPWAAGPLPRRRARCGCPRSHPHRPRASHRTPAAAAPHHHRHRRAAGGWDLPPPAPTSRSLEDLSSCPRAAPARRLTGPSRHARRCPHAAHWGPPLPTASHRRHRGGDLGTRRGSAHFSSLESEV
- ASSAY_DETAILS: Antagonist activity on NMDA receptors (current blockade and recovery)
Short version: inhibition at 50 µM at least 60% is class 1, less is class 0.

COMPOUND	GROUP
CNC1(c2ccccc2Cl)CCCC/C1=N\OC (stereo not drawn) [Methoxime]	class 0
CNC1(c2ccccc2Cl)CCCCC1=O (stereo not drawn) [Ketamine, reference compound]	class 1
CNC1(c2ccccc2Cl)CCCC/C1=N\NC(N)=O (stereo not drawn) [Semicarbazone]	class 0
CNC1(c2ccccc2Cl)CCCC/C1=N\O (stereo not drawn) [Oxime]	class 1
c1ccc(C2(N3CCCCC3)CCCCC2)cc1 [PCP, Phencyclidine, reference compound]	class 1
CNC1(c2ccccc2Cl)CCCC/C1=N\OCc1ccccc1 (stereo not drawn) [Benzoxime]	class 0

----------
- TARGET_ENTITY: NMDA-A (NR1/2A) receptors (Homo sapiens, UniProt Q05586+Q12879)
- Sequence (Q12879 23-1464, other chains not shown): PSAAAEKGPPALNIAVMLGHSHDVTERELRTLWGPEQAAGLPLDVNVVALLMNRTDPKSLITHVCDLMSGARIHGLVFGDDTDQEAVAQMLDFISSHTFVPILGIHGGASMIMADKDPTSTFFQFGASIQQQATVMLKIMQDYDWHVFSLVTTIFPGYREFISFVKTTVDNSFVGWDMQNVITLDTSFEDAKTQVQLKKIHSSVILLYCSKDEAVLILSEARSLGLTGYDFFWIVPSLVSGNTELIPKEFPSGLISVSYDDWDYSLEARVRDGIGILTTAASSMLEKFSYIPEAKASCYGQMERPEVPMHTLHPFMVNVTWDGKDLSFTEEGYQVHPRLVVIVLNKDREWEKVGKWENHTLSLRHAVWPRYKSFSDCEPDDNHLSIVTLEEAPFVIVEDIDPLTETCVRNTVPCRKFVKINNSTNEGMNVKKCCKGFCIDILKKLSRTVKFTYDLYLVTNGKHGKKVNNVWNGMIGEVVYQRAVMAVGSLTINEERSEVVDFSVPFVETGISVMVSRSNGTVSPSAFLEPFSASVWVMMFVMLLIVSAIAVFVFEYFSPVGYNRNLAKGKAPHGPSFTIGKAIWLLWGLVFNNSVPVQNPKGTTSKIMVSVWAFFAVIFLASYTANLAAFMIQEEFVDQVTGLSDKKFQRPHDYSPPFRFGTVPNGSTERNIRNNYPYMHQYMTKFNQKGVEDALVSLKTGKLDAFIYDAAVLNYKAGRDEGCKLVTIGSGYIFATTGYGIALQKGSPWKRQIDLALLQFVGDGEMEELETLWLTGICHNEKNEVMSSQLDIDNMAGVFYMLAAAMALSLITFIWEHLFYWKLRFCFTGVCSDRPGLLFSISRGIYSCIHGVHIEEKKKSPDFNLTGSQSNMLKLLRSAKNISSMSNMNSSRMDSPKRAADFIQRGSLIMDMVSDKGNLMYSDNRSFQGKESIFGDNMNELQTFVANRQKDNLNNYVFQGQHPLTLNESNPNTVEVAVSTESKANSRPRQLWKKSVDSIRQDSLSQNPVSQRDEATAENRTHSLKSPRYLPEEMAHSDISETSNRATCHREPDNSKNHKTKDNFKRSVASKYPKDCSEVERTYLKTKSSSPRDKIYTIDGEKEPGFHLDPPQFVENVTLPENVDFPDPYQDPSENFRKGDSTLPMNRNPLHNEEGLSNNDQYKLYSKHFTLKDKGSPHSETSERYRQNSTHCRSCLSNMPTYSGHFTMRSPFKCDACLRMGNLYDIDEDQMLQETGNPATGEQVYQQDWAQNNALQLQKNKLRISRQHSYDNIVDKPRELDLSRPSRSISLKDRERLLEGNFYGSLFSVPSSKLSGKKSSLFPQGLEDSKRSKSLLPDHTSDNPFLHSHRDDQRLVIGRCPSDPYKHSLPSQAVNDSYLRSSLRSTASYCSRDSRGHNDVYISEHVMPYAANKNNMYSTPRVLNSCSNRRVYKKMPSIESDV
- ASSAY_DETAILS: Antagonist activity on NMDA receptors (current blockade and recovery)
MEASURED_ENDPOINT: inhibition at 50 µM (%)

COMPOUND	MEASURED_ENDPOINT	RECORDED_VALUE
CNC1(c2ccccc2Cl)CCCC/C1=N\NC(N)=O (centres unmarked)	inhibition at 50 µM	33.6
c1ccc(C2(N3CCCCC3)CCCCC2)cc1 [PCP, Phencyclidine, reference compound]	inhibition at 50 µM	88.4
CNC1(c2ccccc2Cl)CCCC/C1=N\O (centres unmarked)	inhibition at 50 µM	89.2
CNC1(c2ccccc2Cl)CCCCC1=O (centres unmarked) [Ketamine, reference compound]	inhibition at 50 µM	57.6
CNC1(c2ccccc2Cl)CCCC/C1=N\OC (centres unmarked)	inhibition at 50 µM	25.3

----------
- TARGET_ENTITY: NMDA-B (NR1/2B) receptors (Homo sapiens, UniProt Q05586+Q13224)
- ASSAY_DETAILS: Antagonist activity on NMDA receptors (current blockade and recovery)
- RUN_CONDITIONS: NMDA-B (NR1/2B); drug concentration 50 μM; current post drug treatment
Threshold-based label: % Recovery under 70% gives 1.0, % Recovery not under 70% gives 0.0.

MOLECULE	GROUP
CNC1(c2ccccc2Cl)CCCC/C1=N\OCc1ccccc1 (stereo not drawn)	0.0
c1ccc(C2(N3CCCCC3)CCCCC2)cc1 [PCP, Phencyclidine, reference compound]	1.0
CNC1(c2ccccc2Cl)CCCC/C1=N\O (stereo not drawn)	1.0
CNC1(c2ccccc2Cl)CCCCC1=O (stereo not drawn) [Ketamine, reference compound]	1.0
CNC1(c2ccccc2Cl)CCCC/C1=N\NC(N)=O (stereo not drawn)	0.0
